Exercise: for every item that follows, state its recorded protein stability index.
B1: LPCAT4 (parent)
chain: HDPLYGKLFSTYLRPPHTSRGTSQ

- Variants of: B1
- protocol.details: protein stability index of a GFP-peptide fusion (GPS, HEK-293T) (PSI 1-6); higher = more stable;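 note: lentivirally expressed fusions sorted by FACS into six bins by GFP to DsRed ratio, PSI derived from sequencing read proportions per bin multiplied by bin number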
- condition.label: c terminus: a fixed tail appended

Illustrative cases are given below, each with its answer.
1. G6W: 2.06
2. G21E: 2.69
3. Y12Q: 3.53
4. Y12K: 3.91
5. S10Q: 3.78
6. S10N: 3.97
7. G6N: 2.08
8. K7C: 2.04

Could you tell me protein stability index for each of these variants? They are listed below.
1. S23I
2. Y12D
3. T11P

-- reply
1: 2.3; 2: 4.06; 3: 2.48

Could you tell me protein stability index for each of these variants? They are listed below.
1. H17A
2. L4F
3. R20K

-- reply
1: 2.79; 2: 3.22; 3: 2.8

Could you tell me protein stability index for each of these variants? They are listed below.
1. T11M
2. R14G
3. K7D
4. H17T
5. L13W

-- reply
1: 2.92; 2: 3.73; 3: 3.28; 4: 2.82; 5: 2.77

Could you tell me protein stability index for each of these variants? They are listed below.
1. Q24R
2. L13A

-- reply
1: 2.39; 2: 3.73

-- ask Which protein stability index is reported for this variant? D2P
-- reply 2.8

// data source = the supplement of paper PMC10567573
